The binders listed here are annotated with their Kd.
- target-or-system: T1, human soluble CEA (human, UniProt P06731 35-685, limits assumed)
- T1 construct: also called sCEA
- T1 sequence (looked up): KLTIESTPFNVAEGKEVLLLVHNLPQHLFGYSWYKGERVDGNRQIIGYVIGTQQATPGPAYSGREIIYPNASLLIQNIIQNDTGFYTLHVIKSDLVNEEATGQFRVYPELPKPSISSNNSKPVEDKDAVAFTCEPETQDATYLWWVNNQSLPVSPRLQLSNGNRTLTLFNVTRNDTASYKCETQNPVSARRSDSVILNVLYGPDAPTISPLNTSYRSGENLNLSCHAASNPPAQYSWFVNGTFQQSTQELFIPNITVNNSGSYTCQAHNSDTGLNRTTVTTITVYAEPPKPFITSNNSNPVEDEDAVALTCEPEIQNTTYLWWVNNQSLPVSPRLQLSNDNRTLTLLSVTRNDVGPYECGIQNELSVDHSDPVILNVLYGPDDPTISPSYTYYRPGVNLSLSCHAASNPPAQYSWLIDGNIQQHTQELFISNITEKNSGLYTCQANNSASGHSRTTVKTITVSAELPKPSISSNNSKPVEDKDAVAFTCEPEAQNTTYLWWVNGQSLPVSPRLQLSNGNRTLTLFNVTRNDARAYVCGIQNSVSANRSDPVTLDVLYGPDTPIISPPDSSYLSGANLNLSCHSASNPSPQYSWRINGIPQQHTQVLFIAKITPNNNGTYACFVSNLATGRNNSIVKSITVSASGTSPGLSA
- test-method-notes: SPR (Biacore T200), antibody captured, soluble CEA as analyte, 1:1 Langmuir
Numeric answer only, unit nM assumed.

Hu63-13 (antibody, human IgG1, kappa, V domains shown, Humanized IgG1/kappa; h63VH5 + h63VL1) VH: EVQLVQSGAEVKKPGASVKVSCKASGYTFTDFYMNWVRQAPGQGLEWMGDIFPKSGNTDYNRKFKDRVTMTRDTSTSTVYMELSSLRSEDTAVYYCARSGYGNYVFDYWGQGTLVTVSS VL: DIQMTQSPSSLSASVGDRVTITCRTSQDINIYLNWYQQKPGKAPKLLIYYRSGLLSGVPSRFSGSGSGTDFTLTISSLQPEDFATYYCQQGNTLPPTFGGGTKVEIKR; 144
Labetuzumab (antibody, human IgG1, kappa, V domains shown, Positive control antibody; also called Lmab; antibody in Lmab-CL2A-SN38) VH: EVQLVESGGGVVQPGRSLRLSCSASGFDFTTYWMSWVRQAPGKGLEWIGEIHPDSSTINYAPSLKDRFTISRDNAKNTLFLQMDSLRPEDTGVYFCASLYFGFPWFAYWGQGTPVTVSS VL: DIQLTQSPSSLSASVGDRVTITCKASQDVGTSVAWYQQKPGKAPKLLIYWTSTRHTGVPSRFSGSGSGTDFTFTISSLQPEDIATYYCQQYSLYRSFGQGTKVEIKR; 5.93
Hu103-32 (antibody, human IgG1, lambda, V domains shown, Humanized IgG1/lambda; h103VH4 + h103VL8) VH: EVQLVQSGSELKKPGASVKVSCKASGYTFTTYGVIWVRQAPGQGLEWMGWINTYSGVPTYASDFKGRFVFSLDTSVSTAYLQISSLKAEDTAVYYCARKKTLTTVTPWFAYWGQGTLVTVSS VL: ELVLTQSPSASASLGASVKLTCTLSSQHSTYTIEWYQQQPEKGPRYVMELKKDGSHSTGEGIPDRFSGSSSGAERYLTISSLQSEDEADYYCGVGNTIKEQFVYVFGGGTKLTVLG; 31.1

Asked: # query: Kd of entry Hu47-14 (antibody, human IgG1, kappa, V domains shown, Humanized IgG1/kappa; h47VH4 + h47VL2) VH: EVQLVQSGSELKKPGASVKVSCKASGYTFTTYGMSWVKQAPGQGLKWMGWINTYSGVPTYASDFKGRFVFSLDTSVSTAYLQISSLKAEDTAVYYCARRGNYGRWDFDVWGQGTTVTVSS VL: EIVLTQSPDFQSVTPKEKVTITCSVSSTISSSNLHWYQQKPDQSPKPLIYGTSNLASGVPSRFSGSGSGTDYTLTINSLEAEDAATYYCQQWSIYPLTFGQGTKLEIKR
Given back: 1430
